meta.source: paper PMC3076432

This listing pairs compounds with measured pIC50.
Test system: F. graminearum PH-1
Conditions: PH-1, 36 h
pIC50: −log10 of the molar value. Peptide text beside a SMILES is read from it.

{"columns": ["COMPOUND", "RELATION_SYMBOL", "pIC50"],
 "data": [
  ["C[C@H](NC(=O)[C@H](Cc1ccccc1)NC(=O)CNC(=O)[C@@H](N)CCCNC(=N)N)C(=O)N[C@@H](CCCNC(=N)N)C(=O)N[C@@H](CCCNC(=N)N)C(=O)O [GMA4-L2] (H-RGFARR-OH; N-terminus and C-terminus assumed)", "<", 4.02],
  ["C[C@@H](O)[C@H](NC(=O)[C@H](CS)NC(=O)[C@H](Cc1ccccc1)NC(=O)[C@H](CS)NC(=O)[C@H](CCCNC(=N)N)NC(=O)[C@H](CCCNC(=N)N)NC(=O)[C@H](CCCNC(=N)N)NC(=O)[C@H](Cc1ccccc1)NC(=O)CNC(=O)[C@H](CCCNC(=N)N)NC(=O)[C@H](CS)NC(=O)[C@H](CCCNC(=N)N)NC(=O)CN)C(=O)N[C@H](C(=O)N[C@@H](Cc1c[nH]cn1)C(=O)N[C@@H](CS)C(=O)O)[C@@H](C)O [GMA4-C] (H-GRCRGFRRRCFCTTHC-OH; N-terminus and C-terminus assumed)", "=", 5.52],
  ["C[C@H](NC(=O)CNC(=O)[C@@H](N)CCCNC(=N)N)C(=O)N[C@@H](CCCNC(=N)N)C(=O)N[C@@H](CCCNC(=N)N)C(=O)N[C@@H](CCCNC(=N)N)C(=O)O [GMA4-L1] (H-RGARRR-OH; N-terminus and C-terminus assumed)", "<", 4.02],
  ["N=C(N)NCCC[C@H](NC(=O)[C@H](Cc1ccccc1)NC(=O)[C@H](CC(=O)O)NC(=O)[C@H](CC(=O)O)NC(=O)[C@@H](N)CCCNC(=N)N)C(=O)O [GMA1-L] (H-RDDFR-OH; N-terminus and C-terminus assumed)", "<", 4.02],
  ["N=C(N)NCCC[C@H](NC(=O)[C@H](CCCNC(=N)N)NC(=O)[C@H](CCCNC(=N)N)NC(=O)[C@H](Cc1ccccc1)NC(=O)CNC(=O)[C@@H](N)CCCNC(=N)N)C(=O)O [GMA4-L] (H-RGFRRR-OH)", "=", 5.40]
]}
